Tested on: SSTR2 mutants
Test: Bystander BRET endosomal trafficking (β-arrestin 1-Nluc, FYVE-mVenus), HEK293 (SSTR2 mutants);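 note: Read-out is the BRET ratio between Nluc-fused β-arrestin 1 and the early endosome marker FYVE-mVenus, measured after ligand addition with coelenterazine h as substrate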
Details: read-out: EC50 (best-fit); W269A-1 (run 1)
ENDPOINT LABEL: EC50 (nM)
Value expressed in nM; do not type the unit.

I'd like to know its EC50. The compound in question is N#Cc1cccc(-c2ccc3ncc(-c4cc(F)cc(F)c4)c(N4CCC(N)CC4)c3c2)c1O [paltusotine] 130

* * *

Molecular target: SSTR3 mutants (Homo sapiens, UniProt P32745, H192T)
Construct: The human full-length SSTRs and mutants were cloned into the pcDNA3.1+ vector; expressed in transfected cells; host or cells: HEK293 (ATCC, CRL-1573)
Sequence (P32745 whole entry H192T): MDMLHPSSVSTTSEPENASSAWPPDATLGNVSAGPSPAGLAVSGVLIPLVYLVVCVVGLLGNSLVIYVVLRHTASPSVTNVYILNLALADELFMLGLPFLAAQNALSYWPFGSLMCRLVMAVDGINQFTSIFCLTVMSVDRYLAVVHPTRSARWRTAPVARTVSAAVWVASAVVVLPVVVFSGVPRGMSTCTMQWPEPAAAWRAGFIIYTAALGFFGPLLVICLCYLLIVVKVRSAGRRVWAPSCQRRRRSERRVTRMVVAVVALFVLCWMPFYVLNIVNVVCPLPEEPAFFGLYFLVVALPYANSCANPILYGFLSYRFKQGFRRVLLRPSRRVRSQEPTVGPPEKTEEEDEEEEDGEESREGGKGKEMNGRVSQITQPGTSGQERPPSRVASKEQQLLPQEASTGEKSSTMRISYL
Assay: SSTRs Gi-mediated cAMP inhibition, GloSensor, HEK293 (SSTR3 mutants)
Type: cell-based
Settings: best-fit; SSTR3 H192T-2; read-out: EC50
ENDPOINT LABEL: pEC50
pEC50 here: minus log base 10 of the concentration, concentration in moles per litre.

Using the record for "N#Cc1cccc(-c2ccc3ncc(-c4cc(F)cc(F)c4)c(N4CCC(N)CC4)c3c2)c1O" , report its pEC50. 7.25

* * *

Target: SSTR2 (Homo sapiens)
Assay: NanoBiT β-arrestin 1 recruitment assay, HEK293 (SSTR2 wild-type)
Assay type: cell-based
Parameters: Human full-length SSTR wild-type and mutant vectors were C-terminally fused; expressed in transfected cells; host or cells: HEK293
Conditions: EC50 (best-fit), WT-1 (D122A set)
Sequence (P30874 whole entry, the tested form may be a part): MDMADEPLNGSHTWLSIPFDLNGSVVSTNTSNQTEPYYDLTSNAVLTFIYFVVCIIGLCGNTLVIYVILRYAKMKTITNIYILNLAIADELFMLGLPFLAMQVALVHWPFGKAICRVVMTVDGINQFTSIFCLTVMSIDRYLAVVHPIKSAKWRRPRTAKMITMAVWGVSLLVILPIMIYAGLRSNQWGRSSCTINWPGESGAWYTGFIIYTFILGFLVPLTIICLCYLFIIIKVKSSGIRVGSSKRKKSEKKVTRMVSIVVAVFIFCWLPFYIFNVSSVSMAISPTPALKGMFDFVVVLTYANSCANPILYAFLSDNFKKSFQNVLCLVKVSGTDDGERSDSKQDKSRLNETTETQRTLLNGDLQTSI
Sequence (P49407 whole entry partner, the tested form may be a part): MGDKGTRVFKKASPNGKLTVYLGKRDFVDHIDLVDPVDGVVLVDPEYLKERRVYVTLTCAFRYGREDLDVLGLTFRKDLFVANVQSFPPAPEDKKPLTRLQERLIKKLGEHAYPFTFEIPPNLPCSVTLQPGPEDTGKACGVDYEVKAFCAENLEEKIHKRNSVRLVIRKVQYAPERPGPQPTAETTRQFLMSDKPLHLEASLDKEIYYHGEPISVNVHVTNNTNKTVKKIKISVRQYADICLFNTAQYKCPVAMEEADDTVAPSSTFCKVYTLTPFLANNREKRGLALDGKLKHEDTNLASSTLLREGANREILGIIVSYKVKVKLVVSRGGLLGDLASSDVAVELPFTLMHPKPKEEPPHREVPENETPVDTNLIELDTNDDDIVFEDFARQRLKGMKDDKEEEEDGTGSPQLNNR
ENDPOINT LABEL: EC50 (nM)
Give the value in nM but do not write nM after it.

// returns reported EC50 for input N#Cc1cccc(-c2ccc3ncc(-c4cc(F)cc(F)c4)c(N4CCC(N)CC4)c3c2)c1O [paltusotine] 420

* * *

Test system: SSTR2 mutants
Assay: NanoBiT β-arrestin 1 recruitment assay, HEK293 (SSTR2 mutants)
Assay type: cell-based, human
Conditions: read-out: EC50 (best-fit value); SSTR2 Y205A; run Y205A-3
ENDPOINT LABEL: pEC50
Value format note: pEC50 is -log10 of concentration (mol/L); just state the number.

If you can, please state the reported pEC50 value of "N#Cc1cccc(-c2ccc3ncc(-c4cc(F)cc(F)c4)c(N4CCC(N)CC4)c3c2)c1O" . 6.67

* * *

Target: SSTR2 (Homo sapiens)
Experiment: Bystander BRET endosomal trafficking (β-arrestin 1-Nluc, FYVE-mVenus), HEK293 (SSTR2 wild-type);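 note: HEK293 cells coexpressing Nluc-tagged β-arrestin 1 and mVenus-fused FYVE endosomal marker, bystander BRET ratio read after ligand addition, coelenterazine h substrate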
Type: cell-based
Design: The human full-length SSTRs and mutants were cloned into the pcDNA3.1+ vector; expressed in transfected cells; host or cells: HEK293
Details: EC50, best-fit value, WT-2 of N276A block = WT-3 of F294A block
Sequence (P30874 whole entry, the tested form may be a part): as the sequence (P30874 whole entry, the tested form may be a part) above
ENDPOINT LABEL: EC50
Report as: number unit

Please give the measured EC50 for this compound: N#Cc1cccc(-c2ccc3ncc(-c4cc(F)cc(F)c4)c(N4CCC(N)CC4)c3c2)c1O [paltusotine] 0.219 µM

* * *

Biological target: SSTR2 (Homo sapiens, UniProt P30874)
Assay: SSTRs Gi-mediated cAMP inhibition, GloSensor, HEK293, 5 μM forskolin, 15 min room temperature (SSTR2 wild-type)
Type: cell-based
Settings: EC50, cAMP inhibition best-fit; I130A set; WT-3
ENDPOINT LABEL: EC50 (nM)
Field format: number, assumed nM, no unit text.

What measured EC50 goes with "N#Cc1cccc(-c2ccc3ncc(-c4cc(F)cc(F)c4)c(N4CCC(N)CC4)c3c2)c1O" ? 1.13
